Biological target: MDR1 (Homo sapiens)
Construct: expressed in transfected cells
Assay: MDR1 membrane permeability test
Assay type: in vitro ADME
Conditions: pH 7.4, efflux ratio (ER), Papp B to A / A to B, human MDR1-expressing LLC-PK1 cells, read-out: MDR1 substrate screening 1 μM (MDRSUB1)/Ratio (NUMBER)
# reported efflux ratio at 1 hr, 1 μM; entries follow
Just the number, please, no unit after it.

Consider the following illustrative entries.
molecule: Cc1c(Cc2ccc(C(=O)N[C@H]3CCOC[C@@H]3O)c(F)c2)cc2c(=O)n([C@H]3CCOC[C@@H]3O)cnc2c1C
efflux ratio at 1 hr, 1 μM: 16
--
molecule: CNC(=O)c1ccc(Cc2cc3c(=O)n([C@H]4CCOC[C@@H]4O)cnc3c(F)c2C)cc1F
efflux ratio at 1 hr, 1 μM: 20

Give its efflux ratio at 1 hr, 1 μM value. Item: `CCOCCNC(=O)c1ccc(Cc2cc3c(=O)n([C@H]4CCOC[C@@H]4O)cnc3c(C)c2C)cc1F`
10

Give its efflux ratio at 1 hr, 1 μM value. Item: `Cc1c(Cc2ccc(C(=O)NCCCS(C)(=O)=O)c(F)c2)cc2c(=O)n([C@H]3CCOC[C@@H]3O)cnc2c1C`
13

Give its efflux ratio at 1 hr, 1 μM value. Item: `COC(C)(C)CNC(=O)c1ccc(Cc2cc3c(=O)n([C@H]4CCOC[C@@H]4O)cnc3c(C)c2C)cc1`
12

Give its efflux ratio at 1 hr, 1 μM value. Item: `COCCCNC(=O)c1ccc(Cc2cc3c(=O)n([C@H]4CCOC[C@@H]4O)cnc3c(C)c2C)cc1`
15

Give its efflux ratio at 1 hr, 1 μM value. Item: `Cc1c(Cc2ccc(-c3cnn(C4CCOCC4)c3)nc2)cc2c(=O)n([C@H]3CCOC[C@@H]3O)cnc2c1C`
13

Give its efflux ratio at 1 hr, 1 μM value. Item: `CNC(=O)c1ccc(Cc2cc3c(=O)n([C@H]4CCOC[C@@H]4O)nnc3c(C)c2C)cc1F`
3.2

----------
Biological target: MDR1 (Homo sapiens, UniProt P08183)
Construct: expressed in transfected cells
Sequence (P08183 whole entry): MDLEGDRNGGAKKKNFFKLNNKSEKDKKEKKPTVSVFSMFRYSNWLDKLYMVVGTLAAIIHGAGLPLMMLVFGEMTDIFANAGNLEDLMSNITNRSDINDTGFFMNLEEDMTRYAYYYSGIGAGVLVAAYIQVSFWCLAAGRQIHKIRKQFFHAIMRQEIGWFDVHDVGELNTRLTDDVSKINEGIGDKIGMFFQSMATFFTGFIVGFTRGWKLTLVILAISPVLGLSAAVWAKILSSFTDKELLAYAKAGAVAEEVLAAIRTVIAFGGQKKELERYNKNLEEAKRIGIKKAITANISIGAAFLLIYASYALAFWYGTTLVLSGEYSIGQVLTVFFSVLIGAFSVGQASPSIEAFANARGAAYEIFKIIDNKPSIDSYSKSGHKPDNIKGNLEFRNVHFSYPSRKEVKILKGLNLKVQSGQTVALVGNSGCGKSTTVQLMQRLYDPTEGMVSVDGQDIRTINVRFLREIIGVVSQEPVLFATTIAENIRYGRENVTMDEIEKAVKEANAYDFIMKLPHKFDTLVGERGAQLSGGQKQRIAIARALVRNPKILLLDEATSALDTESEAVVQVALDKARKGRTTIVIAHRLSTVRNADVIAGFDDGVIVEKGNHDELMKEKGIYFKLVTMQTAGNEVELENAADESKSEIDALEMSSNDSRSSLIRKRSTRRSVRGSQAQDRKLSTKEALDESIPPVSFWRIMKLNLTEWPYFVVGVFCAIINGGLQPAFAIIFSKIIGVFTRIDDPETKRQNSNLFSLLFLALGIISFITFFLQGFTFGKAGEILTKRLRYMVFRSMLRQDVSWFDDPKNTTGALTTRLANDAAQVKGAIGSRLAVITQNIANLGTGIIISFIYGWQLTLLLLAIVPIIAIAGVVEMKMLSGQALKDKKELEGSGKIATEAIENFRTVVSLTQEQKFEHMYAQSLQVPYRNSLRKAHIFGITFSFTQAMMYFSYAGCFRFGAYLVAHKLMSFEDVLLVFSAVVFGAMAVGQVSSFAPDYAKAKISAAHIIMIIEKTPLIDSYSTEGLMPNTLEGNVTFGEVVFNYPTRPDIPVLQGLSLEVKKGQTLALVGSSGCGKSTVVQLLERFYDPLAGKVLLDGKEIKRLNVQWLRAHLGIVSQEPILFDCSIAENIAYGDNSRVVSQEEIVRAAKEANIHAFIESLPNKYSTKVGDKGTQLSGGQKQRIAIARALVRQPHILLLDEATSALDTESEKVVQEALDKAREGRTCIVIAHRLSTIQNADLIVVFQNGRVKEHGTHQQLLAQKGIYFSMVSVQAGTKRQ
Test: MDR1 membrane permeability test
Type: in vitro ADME
Details: pH 7.4, efflux ratio (ER), Papp B to A / A to B, human MDR1-expressing LLC-PK1 cells, read-out: MDR1 substrate screening 1 μM (MDRSUB1)/Ratio (NUMBER)
property-name: efflux ratio at 1 hr, 1 μM
Just the number, please, no unit after it.

Consider the following illustrative entries.
compound: Cc1c(Cc2ccc(C(=O)NC3CCOCC3)cc2)cc2c(=O)n([C@H]3CCOC[C@@H]3O)cnc2c1C [Example 32]
efflux ratio at 1 hr, 1 μM: 26

compound: Cc1nn(C)cc1-c1ccc(Cc2cc3c(=O)n([C@H]4CCOC[C@@H]4O)cnc3c(C)c2C)cn1 [Example 5]
efflux ratio at 1 hr, 1 μM: 15

compound: Cc1c(Cc2ccc(C(=O)NC3CS(=O)(=O)C3)c(F)c2)cc2c(=O)n([C@H]3CCOC[C@@H]3O)cnc2c1C [Example 83]
efflux ratio at 1 hr, 1 μM: 19

For MDR1 (Homo sapiens, UniProt P08183), provide efflux ratio at 1 hr, 1 μM of Cc1c(Cc2ccc(C(=O)NCC3CCOCC3)cc2)cc2c(=O)n([C@H]3CCOC[C@@H]3O)cnc2c1C [Example 51] please.
27

The measurements presented in this section are drawn from patent US11560372B2.
